Give measured IC50 for each item. Keep answers brief.
- Tested on: MCF-7 cells
- test: Radioactive glucose uptake in MCF-7 cells
- Assay type: cell-based
- condition.notes: Homo sapiens, MCF7, 3H-2DG uptake

// solved cases for IC50 follow
{"compound": "Cc1cc(C)c(C(=O)N2CCN(c3ncccc3S(N)(=O)=O)CC2)cc1NC1CCN(c2ccccc2C#N)CC1", "reported.measurement": "10 to 1000 nM"}
{"compound": "Cc1cc(C)c(C(=O)N2CCN(c3ncccc3S(N)(=O)=O)CC2)c(C)c1NC1CCN(c2ccccc2C#N)CC1", "reported.measurement": "10 to 1000 nM"}

# evaluate next
Using MCF-7 cells as the test system, report measured IC50 of Cc1cc(C)c(C(=O)N2CCN(c3ccccc3S(N)(=O)=O)CC2)cc1NC1CCN(c2ccccc2C#N)CC1C (stereo not drawn) .
10 to 1000 nM

###

- System: MCF-7 cells
- test: Radioactive glucose uptake in MCF-7 cells
- Type: cell-based
- condition.notes: Homo sapiens, MCF7, 3H-2DG uptake
pIC50: −log10 of the molar value.
result.type: pIC50

Dear colleague, could you please provide pIC50 for the compounds listed below?
1. Cc1cc(C)c(C(=O)N2CCN(c3cncc4cn[nH]c34)CC2)cc1NC1CCN(c2ccccc2C#N)CC1 [I-44]
2. Cc1cc(C)c(C(=O)N2CCN(c3ccccc3S(N)(=O)=O)CC2)cc1N[C@@H]1CCN(c2ccccc2C#N)C[C@@H]1C [I-171]
3. Cc1cc(C)c(C(=O)N2CCN(c3ccccn3)[C@H](C)C2)cc1NC1CCN(c2ccccc2C#N)CC1 [I-45]

1: 6.00 to 8.00; 2: 6.00 to 8.00; 3: 6.00 to 8.00
